Assay: Quantitative High-Throughput drug screen in 47 multiple myeloma cell lines against the NCATS MIPE library collection: PE2_PLB cell viability assay (AID 1919869); further: nearly all actives have a fitted effect of over 35% in size
Conditions: PE2_PLB myeloma cells viability, ATP luminescence, 48 h; series mostly up to 45.8 µM
Records with an inconclusive call do not appear. Active and inactive are the calls of the source. The call rests on the fitted dose curve; in most records, active means well fitted cell-killing curve with a large enough effect; inconclusive means small, poorly fitted or top-dose-only effect, or effect the other way; inactive means no such curve, though single readings can be large or run the other way.
The categories you may choose from are active, inactive

I'd appreciate the recorded outcome for O=C(O)c1ccc2c(c1)nc(Nc1cccc(Cl)c1)c1ccncc12 from this test.
active

CN(C)CC(C)(C)CNc1nn2c(-c3ccccc3)nnc2cc1C1CCC1 ?
active

Consider next the compound CC(=O)Nc1nc(C)c(-c2ccc(Cl)c(S(=O)(=O)NCCO)c2)s1 in the same way.
active

Consider next the compound CN1CCN(c2ccc3nc(-c4c(N)c5c(F)cccc5[nH]c4=O)[nH]c3c2)CC1 in the same way.
active

Similarly, CNC(=O)c1ccccc1Nc1nc(Nc2ccc(N3CCOCC3)cc2OC)ncc1Cl ?
active

Ok, now Cc1[nH]nc2ccc(-c3cncc(OC[C@@H](N)Cc4ccccc4)c3)cc12
active

Record: Cc1nc2cnc3ccc(C#Cc4cccnc4)cc3c2n1-c1ccc(C(C)(C)C#N)cc1
active

Query Cc1cn2cc(C(=O)N(C)CCO)cc(N[C@@H]3CCOc4cccc(C)c43)c2n1 next
inactive

Try this compound next: C=C1C(=CC=C2CCCC3(C)[C@@H]([C@H](C)C=CC=CC(O)(CC)CC)CC[C@@H]23)C[C@@H](O)C[C@@H]1O (some centres undefined)
active

Next record, please: Nc1ccn([C@@H]2O[C@H](CO)[C@H](O)C2(F)F)c(=O)n1
active

Similarly, COc1cc(OC2CCN(C)CC2)ccc1Nc1ncc2c(n1)n(C1CCCC1)c(=O)n2C ?
active

Please answer likewise for CC(C)(O)CCc1ccc(OCc2cc(-c3cccc(OC(F)F)c3)c3ncccc3c2)cc1
inactive

What do you have for CCC1=C[C@@H]2CN(C1)Cc1c([nH]c3ccccc13)[C@@](C(=O)OC)(c1cc3c(cc1OC)N(C)[C@@H]1[C@@](O)(C(=O)OC)[C@H](OC(C)=O)[C@]4(CC)C=CCN5CC[C@]31[C@@H]54)C2 ?
active

Also need CCC(=C(c1ccccc1)c1ccc(OCCN(C)C)cc1)c1ccccc1 , thanks.
active

Also CC(=O)c1c(C)c2cnc(Nc3ccc(N4CCNCC4)cn3)nc2n(C2CCCC2)c1=O ?
active

Again, but for COc1cccc2c(NCc3ccccc3)nc(-n3c(N)nc4ccccc43)nc12
active

Cool, now COc1cc(C(C)C)c2c(c1)S(=O)(=O)N(COc1cc(=O)n3cccc(OCCN4CCCCC4)c3n1)C2=O
active

Please do the same for CC(C)c1cc(C(=O)N2Cc3ccc(CN4CCN(C)CC4)cc3C2)c(O)cc1O as well.
active

// same read-out, input: Cc1cc(C(=O)N2CCN(c3cccc(Cl)c3)CC2)n(-c2ccccc2)n1
active
